Target: Neutrophil collagenase (Homo sapiens)
Assay: Inhibition of MMP-8 (unknown origin) using 7-methoxycoumarin-4-yl)acetyl-Pro-Leu-Gly-Leu-(3-(2,4-dinitrophenyl)-L-2,3-diamino-propionyl)Ala-Arg-NH2 as substrate preincubated for 30 mins followed by substrate addition by fluorescence assay
Property Label: IC50 (nM)

Reference set, count: 5
Form field: reported IC50 of Cc1ccc(S(=O)(=O)N(CCn2cc(COCCOCCOCCOCCOCCF)nn2)[C@@H](C(=O)NO)C(C)C)cc1
2

Follow-up entry: COc1ccc(S(=O)(=O)N(CCn2cc(CCCF)nn2)[C@@H](C(=O)NO)C(C)C)cc1
0.4

Follow-up entry: COc1ccc(S(=O)(=O)N(CCn2cc(COCCOCCOCCOCCOCCF)nn2)[C@@H](C(=O)NO)C(C)C)cc1
1

Follow-up entry: CC(C)[C@H](C(=O)NO)N(CCn1cc(CNS(=O)(=O)c2ccc(F)cc2)nn1)S(=O)(=O)c1ccc(OCCF)cc1
0.7

Follow-up entry: CC(C)[C@H](C(=O)NO)N(CCn1cc(CCCF)nn1)S(=O)(=O)c1ccc(OCCF)cc1
0.4

I. CC(C)[C@H](C(=O)NO)N(Cc1cn(CCOCCOCCOCCOc2cccnc2F)nn1)S(=O)(=O)c1ccc(OCCF)cc1
II. CC(C)[C@H](C(=O)NO)N(Cc1cn(CCF)nn1)S(=O)(=O)c1ccc(OCCF)cc1
Param metric = IC50; output whichever of I , II has the minimum value. Your choice should be expressed through its label.
I

====

Target: Collagenase 3 (Homo sapiens, UniProt P45452)
Property Label: IC50 (nM)

Reference set, count: 5
Form field: reported IC50 of COc1ccc(S(=O)(=O)N(CCn2cc(CNS(=O)(=O)c3ccc(F)cc3)nn2)[C@@H](C(=O)NO)C(C)C)cc1
0.09

Follow-up entry: CC(C)[C@H](C(=O)NO)N(CCn1cc(COCCOCCOCCOCCOCCF)nn1)S(=O)(=O)c1ccc(OCCF)cc1
7

Follow-up entry: CC(C)[C@H](C(=O)NO)N(CCn1cc(CCCCOc2cccnc2F)nn1)S(=O)(=O)c1ccc(OCCF)cc1
0.07

Follow-up entry: COc1ccc(S(=O)(=O)N(CCn2cc(CCCCOc3cccnc3F)nn2)[C@@H](C(=O)NO)C(C)C)cc1
0.04

Follow-up entry: Cc1ccc(S(=O)(=O)N(CCN=[N+]=[N-])[C@@H](C(=O)NO)C(C)C)cc1
1

P. CC(C)[C@H](C(=O)NO)N(CCn1cc(CNS(=O)(=O)c2ccc(F)cc2)nn1)S(=O)(=O)c1ccc(OCCF)cc1
Q. CC(C)[C@H](C(=O)NO)N(CCN=[N+]=[N-])S(=O)(=O)c1ccc(OCCF)cc1
R. COc1ccc(S(=O)(=O)N(CCN=[N+]=[N-])[C@@H](C(=O)NO)C(C)C)cc1
List these items ordered by IC50, big to small. The response must list the labels following the requested ordering.
R, Q, P
(R: 9 nM, Q: 1 nM, P: 0.1 nM)

====

Experiment: 1-octanol-PBS buffer partition coefficient, log D of the compound at 20 kBq after 1 min by gamma counting analysis
Type: physicochemical
Property Label: logD at 1 min
Reply with just the number.

Form field: reported logD at 1 min of COc1ccc(S(=O)(=O)N(CCn2cc(CCC[18F])nn2)[C@@H](C(=O)NO)C(C)C)cc1
1.25

====

The reader will find IC50 measurements below, all made with Matrix metalloproteinase-9 (Homo sapiens, UniProt P14780).
Sequence (P14780 whole entry): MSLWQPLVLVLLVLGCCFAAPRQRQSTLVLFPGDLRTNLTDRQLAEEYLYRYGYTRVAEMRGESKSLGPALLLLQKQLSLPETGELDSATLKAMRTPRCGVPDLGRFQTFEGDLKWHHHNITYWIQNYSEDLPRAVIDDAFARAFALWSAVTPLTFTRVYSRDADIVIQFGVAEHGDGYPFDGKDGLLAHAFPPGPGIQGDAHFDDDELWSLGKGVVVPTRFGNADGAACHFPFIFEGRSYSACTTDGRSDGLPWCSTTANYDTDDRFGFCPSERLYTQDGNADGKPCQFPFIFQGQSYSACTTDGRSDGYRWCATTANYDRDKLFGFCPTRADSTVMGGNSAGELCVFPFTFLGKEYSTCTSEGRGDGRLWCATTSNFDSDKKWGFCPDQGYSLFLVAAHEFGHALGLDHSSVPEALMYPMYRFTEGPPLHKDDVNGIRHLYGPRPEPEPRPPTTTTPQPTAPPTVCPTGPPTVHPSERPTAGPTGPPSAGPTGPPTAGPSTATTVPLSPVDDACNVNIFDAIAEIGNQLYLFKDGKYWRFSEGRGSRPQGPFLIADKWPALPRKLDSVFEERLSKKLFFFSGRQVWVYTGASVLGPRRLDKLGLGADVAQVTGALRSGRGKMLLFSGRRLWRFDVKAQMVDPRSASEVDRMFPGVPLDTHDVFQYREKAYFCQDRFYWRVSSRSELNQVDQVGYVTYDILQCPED
Property Label: IC50 (nM)

Reference set, count: 2
Item CC(C)[C@H](C(=O)NO)N(Cc1cn(CCF)nn1)S(=O)(=O)c1ccc(OCCF)cc1 with Matrix metalloproteinase-9 (Homo sapiens, UniProt P14780) - IC50?
7

Follow-up entry: CC(C)[C@H](C(=O)NO)N(CCn1cc(CCCF)nn1)S(=O)(=O)c1ccc(OCCF)cc1
2

P. CC(C)[C@H](C(=O)NO)N(CCn1cc(CCCCOc2cccnc2F)nn1)S(=O)(=O)c1ccc(OCCF)cc1
Q. COc1ccc(S(=O)(=O)N(CCn2cc(CCCF)nn2)[C@@H](C(=O)NO)C(C)C)cc1
Hi there! Just curious which has the higher IC50 between P and Q . Your choice should be expressed through its label.
P

====

Molecular target: 72 kDa type IV collagenase (Homo sapiens, UniProt P08253)
Sequence (P08253 whole entry): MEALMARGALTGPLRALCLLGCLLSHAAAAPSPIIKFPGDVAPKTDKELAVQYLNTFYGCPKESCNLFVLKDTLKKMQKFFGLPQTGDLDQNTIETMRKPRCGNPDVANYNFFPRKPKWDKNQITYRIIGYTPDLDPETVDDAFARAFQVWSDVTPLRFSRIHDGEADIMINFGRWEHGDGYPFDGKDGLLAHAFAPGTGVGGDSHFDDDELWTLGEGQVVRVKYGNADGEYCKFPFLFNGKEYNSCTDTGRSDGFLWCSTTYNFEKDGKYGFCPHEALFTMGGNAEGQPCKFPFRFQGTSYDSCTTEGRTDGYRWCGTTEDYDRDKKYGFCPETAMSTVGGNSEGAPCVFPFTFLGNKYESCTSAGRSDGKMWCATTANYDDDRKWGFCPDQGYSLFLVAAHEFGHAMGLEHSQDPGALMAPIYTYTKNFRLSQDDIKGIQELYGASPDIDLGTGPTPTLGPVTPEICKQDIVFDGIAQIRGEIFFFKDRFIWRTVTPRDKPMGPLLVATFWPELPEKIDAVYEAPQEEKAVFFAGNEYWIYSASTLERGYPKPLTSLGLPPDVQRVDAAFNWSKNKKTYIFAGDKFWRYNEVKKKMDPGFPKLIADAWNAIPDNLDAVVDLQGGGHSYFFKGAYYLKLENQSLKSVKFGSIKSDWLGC
pIC50: −log10 of the molar value.
Property Label: pIC50

Form field: reported pIC50 of COc1ccc(S(=O)(=O)N(CCn2cc(CCCCOc3cccnc3F)nn2)[C@@H](C(=O)NO)C(C)C)cc1
9.05

Follow-up entry: CC(C)[C@H](C(=O)NO)N(Cc1cn(CCOCCOCCOCCOc2cccnc2F)nn1)S(=O)(=O)c1ccc(OCCF)cc1
9.30

1. Cc1ccc(S(=O)(=O)N(CCN=[N+]=[N-])[C@@H](C(=O)NO)C(C)C)cc1
2. CC(C)[C@H](C(=O)NO)N(CCn1cc(CCCF)nn1)S(=O)(=O)c1ccc(OCCF)cc1
Hi there! Just curious which has the higher pIC50 between 1 and 2 . Your choice should be expressed through its label.
2
(2: 8.70, 1: 8.40)

P. CC(C)[C@H](C(=O)NO)N(CCn1cc(CNS(=O)(=O)c2ccc(F)cc2)nn1)S(=O)(=O)c1ccc(OCCF)cc1
Q. Cc1ccc(S(=O)(=O)N(CCn2cc(CCCF)nn2)[C@@H](C(=O)NO)C(C)C)cc1
R. CC(C)[C@H](C(=O)NO)N(CCn1cc(CN(C)S(=O)(=O)c2ccc(F)cc2)nn1)S(=O)(=O)c1ccc(OCCF)cc1
# ascending order, key=pIC50 The response must list the labels following the requested ordering.
R, P, Q
(R: 8.05, P: 8.40, Q: 8.70)

====

The reader will find pIC50 measurements below, all made with UniProt P45452.
pIC50: −log10 of the molar value.
Property Label: pIC50

P. CC(C)[C@H](C(=O)NO)N(CCn1cc(CN(C)S(=O)(=O)c2ccc(F)cc2)nn1)S(=O)(=O)c1ccc(OCCF)cc1
Q. COc1ccc(S(=O)(=O)N(CCn2cc(CCCF)nn2)[C@@H](C(=O)NO)C(C)C)cc1
R. COc1ccc(S(=O)(=O)N(CCn2cc(COCCOCCOCCOCCOCCF)nn2)[C@@H](C(=O)NO)C(C)C)cc1
S. CC(C)[C@H](C(=O)NO)N(Cc1cn(CCOCCOCCOCCF)nn1)S(=O)(=O)c1ccc(OCCF)cc1
Order these by pIC50, descending, and give the full ranking. The response must list the labels following the requested ordering.
Q, S, P, R

====

Target: Neutrophil collagenase (Homo sapiens, UniProt P22894)
Sequence (P22894 whole entry): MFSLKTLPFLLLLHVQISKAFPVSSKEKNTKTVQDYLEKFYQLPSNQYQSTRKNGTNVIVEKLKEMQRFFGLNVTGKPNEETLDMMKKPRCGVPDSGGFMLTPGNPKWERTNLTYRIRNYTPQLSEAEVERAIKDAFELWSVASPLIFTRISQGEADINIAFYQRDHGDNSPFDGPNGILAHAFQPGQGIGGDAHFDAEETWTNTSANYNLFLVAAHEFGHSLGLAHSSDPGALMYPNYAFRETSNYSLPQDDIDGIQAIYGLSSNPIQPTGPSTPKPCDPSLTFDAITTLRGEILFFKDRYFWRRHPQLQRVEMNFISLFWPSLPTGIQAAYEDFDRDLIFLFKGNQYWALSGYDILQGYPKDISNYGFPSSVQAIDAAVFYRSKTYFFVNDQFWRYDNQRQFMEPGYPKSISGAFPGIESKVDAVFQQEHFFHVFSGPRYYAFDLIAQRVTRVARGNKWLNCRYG
Experiment: Inhibition of MMP-8 (unknown origin) using 7-methoxycoumarin-4-yl)acetyl-Pro-Leu-Gly-Leu-(3-(2,4-dinitrophenyl)-L-2,3-diamino-propionyl)Ala-Arg-NH2 as substrate preincubated for 30 mins followed by substrate addition by fluorescence assay
pIC50: −log10 of the molar value.
Property Label: pIC50

Reference set, count: 4
Form field: reported pIC50 of CC(C)[C@H](C(=O)NO)N(CCn1cc(CN(C)S(=O)(=O)c2ccc(F)cc2)nn1)S(=O)(=O)c1ccc(OCCF)cc1
8.30

Follow-up entry: Cc1ccc(S(=O)(=O)N(CCn2cc(CCCCOc3cccnc3F)nn2)[C@@H](C(=O)NO)C(C)C)cc1
8.40

Follow-up entry: CC(C)[C@H](C(=O)NO)N(CCn1cc(COCCOCCOCCOCCOCCF)nn1)S(=O)(=O)c1ccc(OCCF)cc1
7.46

Follow-up entry: COc1ccc(S(=O)(=O)N(CCN=[N+]=[N-])[C@@H](C(=O)NO)C(C)C)cc1
8.70

A. COc1ccc(S(=O)(=O)N(CCn2cc(CN(C)S(=O)(=O)c3ccc(F)cc3)nn2)[C@@H](C(=O)NO)C(C)C)cc1
B. COc1ccc(S(=O)(=O)N(CCn2cc(CNS(=O)(=O)c3ccc(F)cc3)nn2)[C@@H](C(=O)NO)C(C)C)cc1
C. COc1ccc(S(=O)(=O)N(CCn2cc(CCCCOc3cccnc3F)nn2)[C@@H](C(=O)NO)C(C)C)cc1
D. CC(C)[C@H](C(=O)NO)N(CCn1cc(CCCCOc2cccnc2F)nn1)S(=O)(=O)c1ccc(OCCF)cc1
List these items ordered by pIC50, big to small. The response must list the labels following the requested ordering.
D, B, C, A
(D: 10.30, B: 9.70, C: 9.30, A: 9.00)

P. Cc1ccc(S(=O)(=O)N(CCN=[N+]=[N-])[C@@H](C(=O)NO)C(C)C)cc1
Q. CC(C)[C@H](C(=O)NO)N(Cc1cn(CCOCCOCCOCCF)nn1)S(=O)(=O)c1ccc(OCCF)cc1
Param metric = pIC50; output whichever of P , Q has the minimum value. Your choice should be expressed through its label.
P

Data origin, for the record: ChEMBL document CHEMBL2424572
